Source of measurements: patent US7714146B2

- EXPERIMENTAL TARGET: human VEGFR-2 (Val789-Val1356) (Homo sapiens)
- Construct: human VEGFR-2 (Val789-Val1356); GST (N); purchased Cell Signaling Technology; host or cells: baculovirus expression system
- Sequence (P35968 789-1356): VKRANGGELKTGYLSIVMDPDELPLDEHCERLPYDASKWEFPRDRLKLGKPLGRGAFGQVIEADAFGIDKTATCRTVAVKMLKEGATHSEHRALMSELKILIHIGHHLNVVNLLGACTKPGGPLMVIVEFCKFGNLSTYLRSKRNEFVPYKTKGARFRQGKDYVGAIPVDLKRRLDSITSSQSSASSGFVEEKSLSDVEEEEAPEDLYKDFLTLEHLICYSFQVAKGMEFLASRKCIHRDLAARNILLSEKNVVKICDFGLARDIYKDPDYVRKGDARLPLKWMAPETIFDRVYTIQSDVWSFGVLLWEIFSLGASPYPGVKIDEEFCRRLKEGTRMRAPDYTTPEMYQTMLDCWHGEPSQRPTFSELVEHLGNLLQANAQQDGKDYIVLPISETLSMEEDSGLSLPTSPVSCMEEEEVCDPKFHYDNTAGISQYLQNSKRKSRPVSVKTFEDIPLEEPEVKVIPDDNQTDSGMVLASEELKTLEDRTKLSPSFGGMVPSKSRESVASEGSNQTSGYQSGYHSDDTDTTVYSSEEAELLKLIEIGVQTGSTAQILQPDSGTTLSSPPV
- PROCEDURE DETAILS: KDR kinase assay (HTScan VEGFR-2 kit, DELFIA)
- Format: biochemical
- COND: compound at 0.1 μM; read-out: KDR 0.1 μM, % of inhibition relative to control
- Description: Compounds 1-100 were treated for their efficacy in inhibiting activities of FLT-3, c-KIT, KDR/Flk-1, PDGFR-beta, EGFR, and PKC kinases by biochemical DELFIA (Dissociation Enhanced Lanthanide FIA) assays according to the procedure described below. The assays were conducted by, Division of Cell Engineering, Biomedical Engineering Research Laboratories, Industrial Technology Research Institute, Bldg. 53, 195, sec. 4, Chung Hsing Rd. Chutung, Hsinchu, Taiwan 310, R.O.C. […]
Recorded inhibition at 0.1 µM for the following compounds

>  <CHEMICAL SMILES>
O=C1Nc2ccccc2/C1=C\c1c2cccccc-2[nH]c1=O

>  <RESULT UNIT>
%

>  <inhibition at 0.1 µM>
25.9

$$$$
>  <CHEMICAL SMILES>
O=C1Nc2ccc(-c3ccccc3)cc2/C1=C/c1ccc2cccccc1-2

>  <RESULT UNIT>
%

>  <inhibition at 0.1 µM>
8.9

$$$$
>  <CHEMICAL SMILES>
O=C1Nc2ccccc2/C1=C/c1cc2cccccc-2c1

>  <RESULT UNIT>
%

>  <inhibition at 0.1 µM>
24.6

$$$$
>  <CHEMICAL SMILES>
CCc1cc(C=C2C(=O)Nc3ccc(S(=O)(=O)NCCCN4CCN(C)CC4)cc32)c2cccccc1-2

>  <RESULT UNIT>
%

>  <inhibition at 0.1 µM>
20.8

$$$$
>  <CHEMICAL SMILES>
O=C1Nc2ccc(F)cc2/C1=C\c1ccc2cccccc1-2

>  <RESULT UNIT>
%

>  <inhibition at 0.1 µM>
7.7

$$$$
>  <CHEMICAL SMILES>
O=C1Nc2ccc(Cl)cc2/C1=C\c1ccc2cccccc1-2

>  <RESULT UNIT>
%

>  <inhibition at 0.1 µM>
15.6

$$$$
>  <CHEMICAL SMILES>
COc1ccc(CN2C(=O)/C(=C/c3cc(C)c4cc(C(C)C)ccc(C)c3-4)c3ccccc32)cc1

>  <RESULT UNIT>
%

>  <inhibition at 0.1 µM>
40.4

$$$$
>  <CHEMICAL SMILES>
O=C1Nc2ccc(Br)cc2/C1=C\c1ccc2cccccc1-2

>  <RESULT UNIT>
%

>  <inhibition at 0.1 µM>
29.5

$$$$
>  <CHEMICAL SMILES>
COC(=O)c1cc(/C=C2\C(=O)Nc3ccccc32)c2cccccc1-2

>  <RESULT UNIT>
%

>  <inhibition at 0.1 µM>
15.4

$$$$
